Just for reference, paper PMC10873978 is where these values come from.

Test system: MCF7 cell line
Test: In vitro cytotoxic activity, MTT method, MCF7
Format: cell-based, human
Details: MCF7, 25 µMol
Listing: Viability % of selected compounds
MEASURE: Viability % (%)

[
  {
    "COMPOUND": "CC(=O)c1ccc(NC(=O)CSc2nc(C)c3c(c2C#N)CC(C)(O)C(C(C)=O)C3c2ccc(N(C)C)cc2)cc1 (stereo not drawn) [Compound 7d]",
    "ASSAY VALUE": 3.268
  },
  {
    "COMPOUND": "CSc1nc(C)c2c(c1C#N)CC(C)(O)C(C(C)=O)C2c1ccc(N(C)C)cc1 (stereo not drawn) [Compound 3]",
    "ASSAY VALUE": 2.941
  },
  {
    "COMPOUND": "CCOC(=O)CSc1nc(C)c2c(c1C#N)CC(C)(O)C(C(C)=O)C2c1ccc(N(C)C)cc1 (stereo not drawn) [Compound 4]",
    "ASSAY VALUE": 3.186
  }
]

----------
Test system: A549 cell line
Assay: In vitro cytotoxic activity, MTT method, A549
Details: A549, Conc. 0.0487 µMol
Each entry below carries its reported Toxicity %.

[
  {
    "COMPOUND": "CSc1nc(C)c2c(c1C#N)CC(C)(O)C(C(C)=O)C2c1ccc(N(C)C)cc1 (centres unmarked) [Compound 3]",
    "DISPLAY UNIT": "%",
    "Toxicity %": 0.30
  },
  {
    "COMPOUND": "CCOC(=O)CSc1nc(C)c2c(c1C#N)CC(C)(O)C(C(C)=O)C2c1ccc(N(C)C)cc1 (centres unmarked) [Compound 4]",
    "DISPLAY UNIT": "%",
    "Toxicity %": 1.8
  },
  {
    "COMPOUND": "COc1cccc2c1C(=O)c1c(O)c3c(c(O)c1C2=O)C[C@@](O)(C(=O)CO)C[C@@H]3O[C@H]1C[C@H](N)[C@H](O)[C@H](C)O1 [Douxrbicin]",
    "DISPLAY UNIT": "%",
    "Toxicity %": 20
  },
  {
    "COMPOUND": "CC(=O)C1C(c2ccc(N(C)C)cc2)c2c(C)[nH]c(=S)c(C#N)c2CC1(C)O (centres unmarked) [Compound 1]",
    "DISPLAY UNIT": "%",
    "Toxicity %": 1
  },
  {
    "COMPOUND": "CC(=O)C1C(c2ccc(N(C)C)cc2)c2c(C)nc(SCC(N)=O)c(C#N)c2CC1(C)O (centres unmarked) [Compound 5]",
    "DISPLAY UNIT": "%",
    "Toxicity %": 0
  }
]

----------
Test system: MCF7 cell line
Assay: In vitro cytotoxic activity, MTT method, MCF7
Format: cell-based, human
Details: MCF7, 0.195 µMol

[
  {
    "MOLECULE": "CC(=O)c1ccc(NC(=O)CSc2nc(C)c3c(c2C#N)CC(C)(O)C(C(C)=O)C3c2ccc(N(C)C)cc2)cc1 (stereo not shown)",
    "TARGET SYSTEM": "MCF7 cell line",
    "Viability % (%)": 94.89
  },
  {
    "MOLECULE": "CSc1nc(C)c2c(c1C#N)CC(C)(O)C(C(C)=O)C2c1ccc(N(C)C)cc1 (stereo not shown)",
    "TARGET SYSTEM": "MCF7 cell line",
    "Viability % (%)": 91.67
  },
  {
    "MOLECULE": "CC(=O)C1C(c2ccc(N(C)C)cc2)c2c(C)nc(SCC(=O)Nc3ccc(Cl)cc3)c(C#N)c2CC1(C)O (stereo not shown)",
    "TARGET SYSTEM": "MCF7 cell line",
    "Viability % (%)": 99.47
  },
  {
    "MOLECULE": "CC(=O)C1C(c2ccc(N(C)C)cc2)c2c(C)nc(SCC(=O)Nc3ccccc3)c(C#N)c2CC1(C)O (stereo not shown)",
    "TARGET SYSTEM": "MCF7 cell line",
    "Viability % (%)": 102.9
  },
  {
    "MOLECULE": "CC(=O)C1C(c2ccc(N(C)C)cc2)c2c(C)nc(SCC#N)c(C#N)c2CC1(C)O (stereo not shown)",
    "TARGET SYSTEM": "MCF7 cell line",
    "Viability % (%)": 61.76
  },
  {
    "MOLECULE": "CC(=O)C1C(c2ccc(N(C)C)cc2)c2c(C)nc(SCC(=O)Nc3ccc(C)cc3)c(C#N)c2CC1(C)O (stereo not shown)",
    "TARGET SYSTEM": "MCF7 cell line",
    "Viability % (%)": 91.67
  },
  {
    "MOLECULE": "CC(=O)C1C(c2ccc(N(C)C)cc2)c2c(C)nc(SCC(N)=O)c(C#N)c2CC1(C)O (stereo not shown)",
    "TARGET SYSTEM": "MCF7 cell line",
    "Viability % (%)": 102.9
  },
  {
    "MOLECULE": "COc1cccc2c1C(=O)c1c(O)c3c(c(O)c1C2=O)C[C@@](O)(C(=O)CO)C[C@@H]3O[C@H]1C[C@H](N)[C@H](O)[C@H](C)O1 [Doxorubicin, reference compound]",
    "TARGET SYSTEM": "MCF7 cell line",
    "Viability % (%)": 43.66
  },
  {
    "MOLECULE": "CC(=O)C1C(c2ccc(N(C)C)cc2)c2c(C)[nH]c(=S)c(C#N)c2CC1(C)O (stereo not shown)",
    "TARGET SYSTEM": "MCF7 cell line",
    "Viability % (%)": 99.55
  },
  {
    "MOLECULE": "CCOC(=O)CSc1nc(C)c2c(c1C#N)CC(C)(O)C(C(C)=O)C2c1ccc(N(C)C)cc1 (stereo not shown)",
    "TARGET SYSTEM": "MCF7 cell line",
    "Viability % (%)": 99.92
  }
]

----------
# Viability % per record follows
System: A549 cell line
Test: In vitro cytotoxic activity, MTT method, A549
Details: A549, Conc. 12.5 µMol

[
  {
    "COMPOUND": "CC(=O)C1C(c2ccc(N(C)C)cc2)c2c(C)nc3sc(C(=O)Nc4ccc(Cl)cc4)c(N)c3c2CC1(C)O (stereo not shown) [Compound 8c]",
    "Viability % [%]": 3.314
  },
  {
    "COMPOUND": "CC(=O)C1C(c2ccc(N(C)C)cc2)c2c(C)nc(SCC(=O)Nc3ccc(Cl)cc3)c(C#N)c2CC1(C)O (stereo not shown) [Compound 7c]",
    "Viability % [%]": 4.063
  },
  {
    "COMPOUND": "CC(=O)C1C(c2ccc(N(C)C)cc2)c2c(C)nc(SCC(N)=O)c(C#N)c2CC1(C)O (stereo not shown) [Compound 5]",
    "Viability % [%]": 8.402
  },
  {
    "COMPOUND": "COc1cccc2c1C(=O)c1c(O)c3c(c(O)c1C2=O)C[C@@](O)(C(=O)CO)C[C@@H]3O[C@H]1C[C@H](N)[C@H](O)[C@H](C)O1 [Douxrbicin]",
    "Viability % [%]": 2.1
  }
]

----------
Test system: MCF7 cell line
Experiment: In vitro cytotoxic activity, MTT method, MCF7
Type: cell-based, human
Conditions: MCF7, Conc. 25 µMol
MEASURE: Viability % (%)

[
  {
    "COMPOUND": "CC(=O)C1C(c2ccc(N(C)C)cc2)c2c(C)nc3sc(C(=O)Nc4ccc(Cl)cc4)c(N)c3c2CC1(C)O (stereo not shown)",
    "DISPLAY UNIT": "%",
    "ASSAY VALUE": 3.064
  },
  {
    "COMPOUND": "CC(=O)c1ccc(NC(=O)c2sc3nc(C)c4c(c3c2N)CC(C)(O)C(C(C)=O)C4c2ccc(N(C)C)cc2)cc1 (stereo not shown)",
    "DISPLAY UNIT": "%",
    "ASSAY VALUE": 2.451
  },
  {
    "COMPOUND": "CC(=O)C1C(c2ccc(N(C)C)cc2)c2c(C)nc3sc(C(=O)Nc4ccc(C)cc4)c(N)c3c2CC1(C)O (stereo not shown)",
    "DISPLAY UNIT": "%",
    "ASSAY VALUE": 3.309
  },
  {
    "COMPOUND": "CC(=O)C1C(c2ccc(N(C)C)cc2)c2c(C)nc3sc(C(=O)Nc4ccccc4)c(N)c3c2CC1(C)O (stereo not shown)",
    "DISPLAY UNIT": "%",
    "ASSAY VALUE": 2.574
  }
]

----------
Test system: A549 cell line
Experiment: In vitro cytotoxic activity, MTT method, A549
Details: A549, Conc. 1.562 µMol
Procedure: Cell lines: The in vitro human breast cancerous cell line (MCF7), lung cancerous cell lines (A549) and normal cell lines were purchased from Serum and Vaccine formulation in Cairo-Egypt. In vitro cytotoxic activity of all synthesized compounds against two human breast cell line (MCF7) and lung cell lines (A549) was evaluated according to the MTT method. […] Finally read the optical density at 560 nm and subtract background at 620 nm. […]

[
  {
    "COMPOUND": "CC(=O)C1C(c2ccc(N(C)C)cc2)c2c(C)nc(SCC(=O)Nc3ccccc3)c(C#N)c2CC1(C)O (stereo not shown)",
    "Viability % [%]": 58.67
  },
  {
    "COMPOUND": "CC(=O)c1ccc(NC(=O)CSc2nc(C)c3c(c2C#N)CC(C)(O)C(C(C)=O)C3c2ccc(N(C)C)cc2)cc1 (stereo not shown)",
    "Viability % [%]": 29.55
  },
  {
    "COMPOUND": "CC(=O)C1C(c2ccc(N(C)C)cc2)c2c(C)[nH]c(=S)c(C#N)c2CC1(C)O (stereo not shown)",
    "Viability % [%]": 65.01
  },
  {
    "COMPOUND": "COc1cccc2c1C(=O)c1c(O)c3c(c(O)c1C2=O)C[C@@](O)(C(=O)CO)C[C@@H]3O[C@H]1C[C@H](N)[C@H](O)[C@H](C)O1",
    "Viability % [%]": 10.16
  },
  {
    "COMPOUND": "CC(=O)c1ccc(NC(=O)c2sc3nc(C)c4c(c3c2N)CC(C)(O)C(C(C)=O)C4c2ccc(N(C)C)cc2)cc1 (stereo not shown)",
    "Viability % [%]": 31.6
  },
  {
    "COMPOUND": "CC(=O)C1C(c2ccc(N(C)C)cc2)c2c(C)nc(SCC(N)=O)c(C#N)c2CC1(C)O (stereo not shown)",
    "Viability % [%]": 45.92
  },
  {
    "COMPOUND": "CC(=O)C1C(c2ccc(N(C)C)cc2)c2c(C)nc3sc(C(=O)Nc4ccccc4)c(N)c3c2CC1(C)O (stereo not shown)",
    "Viability % [%]": 46.43
  }
]
